Just for reference, ChEMBL document CHEMBL1201862 is where these values come from.

Listed here: items and their measured GI50.
Tested on: U-251
protocol_summary: NCI tumour cell line growth inhibition, 48 h
Active and inactive are the calls of the source. No stated cut-off is given here; in the data, active = GI50 up to about 1.1 µM and inactive = higher.
observation_type: GI50

O=C(CO)C1CC2C=CC1C2 (stereo unspecified) | > 100 µM (inactive)
O=[N+]([O-])c1cc2c(c([N+](=O)[O-])c1)NCc1ccccc1O2 | 41.2 µM (inactive)
c1ccc(CNCCCCNCCCNCc2ccccc2)cc1 | 17.8 µM (inactive)
CC1CCC2[C@@H](C)COC3O[C@]4(C)CCC1C32OO4 (stereo partly specified) | > 100 µM (inactive)
c1ccc2c(c1)OCCOCCOc1ccccc1OCCO2 | 34.4 µM (inactive)
Cc1cc(CS(=O)(=O)/C=C/c2ccccc2[N+](=O)[O-])c(CS(=O)(=O)/C=C/c2ccccc2[N+](=O)[O-])cc1C | 19.6 µM (inactive)
